Entries annotated with measured EC50
system: Vaccinia virus; assay: Antiviral activity against Vaccinia virus in E6SM cells assessed as reduction of virus-induced cytopathogenicity; format: functional, organism-based; conditions: Orthopoxvirus vaccinia

1. Nc1nc2c(ncn2COCCO)c(=O)[nH]1 [ACYCLOVIR]; > 400 µg/mL
2. Nc1nc2c(ncn2COC(CO)CO)c(=O)[nH]1 [GANCICLOVIR]; > 100 µg/mL

Here is another compound to look at.
Can you share its EC50? I mean this compound: CC(=O)OC[C@H]1O[C@@H](n2cc(C#CI)c(=O)[nH]c2=O)[C@@H](OC(C)=O)[C@@H]1OC(C)=O
> 10 µg/mL
